- testDescription: Paramagnetic relaxation properties in human plasma at 37°C
- Type: physicochemical
- conditionParameters: 90 µM final concentration, 37°C, triplicate
# T₁ value per record follows
// units = ms; emit number, no label

{"columns": ["lineNotation", "quantityUnit", "result"],
 "data": [
  ["NC(=O)CC[C@H](N)C(=O)O.NC(=O)CC[C@H](N)C(=O)O.O.O.[Cl-].[Cl-].[Mn+2]", "ms", 251]
]}

Query (molecule): NC(=O)C[C@H]([NH3+])C(=O)[O-].NC(=O)C[C@H]([NH3+])C(=O)[O-].O.O.[Cl-].[Cl-].[Mn+2] ; field requested: T₁ value
244

Query (molecule): N[C@@H](Cc1ccccc1)C(=O)O.N[C@@H](Cc1ccccc1)C(=O)O.O.O.[Cl-].[Cl-].[Mn+2] ; field requested: T₁ value
240

Query (molecule): CC[C@H](C)[C@H](N)C(=O)O.CC[C@H](C)[C@H](N)C(=O)O.O.O.[Cl-].[Cl-].[Mn+2] ; field requested: T₁ value
235

Query (molecule): CC(C)C[C@H](N)C(=O)O.CC(C)C[C@H](N)C(=O)O.O.O.[Cl-].[Cl-].[Mn+2] ; field requested: T₁ value
243

meta.source: patent EP0308983A2
